Method Notes: Urine levels of triptorelin and triptorelin (5-10) in patients after triptorelin administration (LC/MS-IT-TOF)
Type: in vivo, human
Experimental Parameters: human, urine, im, 11.25 mg, mean of n = 5 patients; urine 6 h after 11.25 mg Diphereline P.R. (triptorelin pamoate) intramuscularly; SPE, LC/MS-IT-TOF; read-out: detection level in urine, 6 h, mean
Reported Endpoint: level at 6 h (ng/mL)
Write the answer as a number in ng/mL, unit excluded.

Per the record, CC(C)C[C@H](NC(=O)[C@@H](Cc1c[nH]c2ccccc12)NC(=O)[C@H](Cc1ccc(O)cc1)NC(=O)[C@H](CO)NC(=O)[C@H](Cc1c[nH]c2ccccc12)NC(=O)[C@H](Cc1c[nH]cn1)NC(=O)[C@@H]1CCC(=O)N1)C(=O)N[C@@H](CCCNC(=N)N)C(=O)N1CCC[C@H]1C(=O)NCC(N)=O [Triptorelin, triptorelin] has level at 6 h of 62.6
